Values from ChEMBL document CHEMBL1201862

Tested on: SF-295
method: NCI tumour cell line growth inhibition, 48 h
Activity calls are given as the source filed them. Cut-off read from the data, not from the text of the source: active = GI50 up to about 1.1 µM and inactive = higher.
assay_metric: GI50

Please review the following examples before continuing.
| compound | GI50 |
| --- | --- |
| CC(C)(C)NC(=O)N1N=C(c2ccccc2)C1c1ccccc1 (stereo not given) | 35.6 µM (inactive) |
| COc1ccc2c(c1)[C@@H]1c3cc(OC)c(OC)cc3CCN1CCC2 | > 100 µM (inactive) |
| C/C(=N\c1ccc(Cl)cc1)c1ccncc1 | > 100 µM (inactive) |

CN(c1n[n+]2c(-c3ccccc3)csc2s1)c1n[n+]2c(-c3ccccc3)csc2s1 yielded GI50 of > 100 µM (inactive)

* * *

Tested on: 786-0
method: NCI tumour cell line growth inhibition, 48 h
Active and inactive are the calls of the source. No stated cut-off is given here; in the data, active = GI50 up to about 1.1 µM and inactive = higher.
assay_metric: GI50

Please review the following examples before continuing.
| compound | tested_system | GI50 |
| --- | --- | --- |
| COC(=O)c1c(O)ccc2c1c1cc3ccccc3c(O)c1n2CCc1ccc(OC)c(OC)c1 | 786-0 | 91.8 µM (inactive) |
| COC1CC(O)C(OC(=O)c2ccccc2)C(C)O1 (stereo not drawn) | 786-0 | > 100 µM (inactive) |

Continue with the next compound.
COc1cc(/C=C/C(=O)N[C@@H]2C(=O)N3[C@@H]2SC(C)(C)[C@@H]3C(=O)O)ccc1O yielded GI50 of > 100 µM (inactive)

* * *

Tested on: M14
method: NCI tumour cell line growth inhibition, 48 h
Calls of active or inactive are those of the source. No stated cut-off is given here; in the data, active = GI50 up to about 1.1 µM and inactive = higher. Non-standard residues stand in square brackets, D forms with d. Residues, ends and D or L forms follow the SMILES beside them. ξ: configuration not given here. *: point of attachment. X18 = COC1=CC(=O)N(C(=O)C(O*)C(C)C)C1Cc1ccccc1; ξNMe2Val = CC(C)C(C(=O)*)N(C)C; NMeV = CN[CH](C(=O)O)C(C)C
I would appreciate it if you answered using one of these outcomes: 1 (yes) for active, 0 (no) for inactive

Here's what some known entries look like.
| compound | category_label |
| --- | --- |
| CCCc1c(OC)c(=O)c2c(O)cc(OC)c3c4c(OC)cc(O)c5c(=O)c(OC)c(CCC)c(c1c23)c54 | 0 (no) |
| S=C(S)NCC1CCC(CNC(=S)S)CC1 (stereo unspecified) | 0 (no) |

Query: Which outcome was assigned to Clc1ccc2c(SCC3CO3)c3ccccc3nc2c1 (stereo unspecified) in this test?
Reply: 0 (no)

Query: Which outcome was assigned to CC(=O)O[C@H]1C(=O)[C@@]2(C)[C@H]([C@H](OC(=O)c3ccccc3)[C@]3(O)C[C@H](OC(=O)[C@H](O)[C@@H](NC(=O)c4ccccc4)c4ccccc4C)C(C)=C1C3(C)C)[C@]1(OC(C)=O)CO[C@@H]1C[C@@H]2O in this test?
Reply: 1 (yes)

Query: Which outcome was assigned to [O-][n+]1nc(N2CCOCC2)nc2ccccc21 in this test?
Reply: 0 (no)

Query: Which outcome was assigned to COC1=CC(=O)N(C(=O)C(OC(=O)C2CCCN2C(=O)C2CCCN2C(=O)C(C(C)C)N(C)C(=O)C(NC(=O)C(C(C)C)N(C)C)C(C)C)C(C)C)C1Cc1ccccc1 (stereo unspecified) (ξNMe2Val-V[NMeV]PP-X18; configuration not given here) in this test?
Reply: 1 (yes)
